Numbers sourced from paper PMC7522858.

molecular target: myeloperoxidase (MPO) (Homo sapiens, UniProt P05164); construct: isolated human MPO; assay: luminol luminescence assay of isolated human MPO with H2O2 and NaCl
Sequence (P05164 165-273): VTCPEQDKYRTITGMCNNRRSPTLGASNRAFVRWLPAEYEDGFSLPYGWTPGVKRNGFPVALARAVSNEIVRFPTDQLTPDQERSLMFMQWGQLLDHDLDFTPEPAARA
Sequence (P05164 279-745): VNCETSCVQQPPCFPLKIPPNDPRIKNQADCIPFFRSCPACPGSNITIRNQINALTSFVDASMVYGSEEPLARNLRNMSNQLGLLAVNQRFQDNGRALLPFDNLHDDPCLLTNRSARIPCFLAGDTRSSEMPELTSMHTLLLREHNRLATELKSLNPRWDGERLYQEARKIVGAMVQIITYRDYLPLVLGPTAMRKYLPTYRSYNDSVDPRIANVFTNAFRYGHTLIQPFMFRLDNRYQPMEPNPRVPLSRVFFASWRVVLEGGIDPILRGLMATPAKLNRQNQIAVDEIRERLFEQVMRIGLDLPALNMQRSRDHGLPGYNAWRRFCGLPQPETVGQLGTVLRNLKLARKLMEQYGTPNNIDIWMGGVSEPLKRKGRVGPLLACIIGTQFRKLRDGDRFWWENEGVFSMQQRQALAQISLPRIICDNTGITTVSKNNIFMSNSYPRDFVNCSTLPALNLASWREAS
pIC50: −log10 of the molar value.
measure: pIC50

pIC50 reported for this compound CC(C)OCCn1c(=S)[nH]c(=O)c2[nH]ccc21 [AZD3241] : ~5.92
